The values you see were collected from ChEMBL document CHEMBL5291721.

Assay read-out AC50; system under study: Alpha-1A adrenergic receptor (Homo sapiens, UniProt P35348). Note: assay procedure not described here.
Sequence (P35348 whole entry): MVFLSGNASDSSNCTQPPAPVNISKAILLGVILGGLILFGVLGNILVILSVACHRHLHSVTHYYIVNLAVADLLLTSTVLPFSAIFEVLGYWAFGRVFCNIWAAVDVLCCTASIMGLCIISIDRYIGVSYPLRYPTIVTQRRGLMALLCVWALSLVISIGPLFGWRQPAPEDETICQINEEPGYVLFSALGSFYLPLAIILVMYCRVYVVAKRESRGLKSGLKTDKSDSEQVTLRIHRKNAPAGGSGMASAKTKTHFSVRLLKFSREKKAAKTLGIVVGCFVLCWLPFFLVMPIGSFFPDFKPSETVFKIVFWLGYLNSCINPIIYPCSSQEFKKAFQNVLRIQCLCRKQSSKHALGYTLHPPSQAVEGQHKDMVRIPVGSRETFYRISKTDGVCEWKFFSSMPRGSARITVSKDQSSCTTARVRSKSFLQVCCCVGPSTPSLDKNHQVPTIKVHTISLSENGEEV
The answer is to be given in µM; state only the numeric part.

{"columns": ["compound", "metric", "reported measurement"],
 "data": [
  ["COc1ccccc1OCCNCC(O)COc1cccc2[nH]c3ccccc3c12 (stereo not given) [CARVEDILOL]", "AC50", 0.0099]
]}

Turning now to a further record.
Ask: Tell us which AC50 value is on record for CC(CCc1ccc(O)cc1)NCCc1ccc(O)c(O)c1 (stereo not given) [DOBUTAMINE]
Result: 0.0704

###

Assay read-out AC50; system under study: Adenosine receptor A2a (Homo sapiens, UniProt P29274). Note: assay procedure not described here.
Sequence (P29274 whole entry): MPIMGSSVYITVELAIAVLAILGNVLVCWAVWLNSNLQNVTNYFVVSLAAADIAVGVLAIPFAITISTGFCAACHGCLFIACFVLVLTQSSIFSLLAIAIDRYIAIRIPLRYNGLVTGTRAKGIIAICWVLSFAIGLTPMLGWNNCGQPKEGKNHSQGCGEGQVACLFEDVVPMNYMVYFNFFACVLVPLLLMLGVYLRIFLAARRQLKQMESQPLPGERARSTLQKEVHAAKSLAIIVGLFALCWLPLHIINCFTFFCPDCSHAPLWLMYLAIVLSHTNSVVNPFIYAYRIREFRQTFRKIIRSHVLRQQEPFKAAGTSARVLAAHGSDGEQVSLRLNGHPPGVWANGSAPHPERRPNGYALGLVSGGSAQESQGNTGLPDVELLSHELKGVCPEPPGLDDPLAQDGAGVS

{"columns": ["compound", "reported measurement"],
 "data": [
  ["CC(=O)OCC(=O)[C@@]1(O)[C@H](C)C[C@H]2[C@@H]3CCC4=CC(=O)C=C[C@]4(C)[C@@]3(F)[C@@H](O)C[C@@]21C [DEXAMETHASONE ACETATE]", "> 30 µM"]
]}

Ask: Would you please give the reported AC50 of O=C(O)c1cn(C2CC2)c2cc(N3CCNCC3)c(F)cc2c1=O with Adenosine receptor A2a (Homo sapiens, UniProt P29274)?
Result: > 30 µM

Ask: Would you please give the reported AC50 of C/C(=C\C(=O)OCCCCCCCCC(=O)O)C[C@@H]1OC[C@H](C[C@@H]2O[C@H]2[C@@H](C)[C@H](C)O)[C@@H](O)[C@H]1O with Adenosine receptor A2a (Homo sapiens, UniProt P29274)?
Result: > 10 µM

Ask: Would you please give the reported AC50 of C[C@]12CC[C@@H]3c4ccc(O)cc4C[C@@H](CCCCCCCCC[S+]([O-])CCCC(F)(F)C(F)(F)F)[C@H]3[C@@H]1CC[C@@H]2O (stereo partly specified) with Adenosine receptor A2a (Homo sapiens, UniProt P29274)?
Result: > 30 µM

Ask: Would you please give the reported AC50 of CC(S)C(=O)NCC(=O)O (stereo unspecified) with Adenosine receptor A2a (Homo sapiens, UniProt P29274)?
Result: > 30 µM

Ask: Would you please give the reported AC50 of CCN1CCN(Cc2ccc(Nc3ncc(F)c(-c4cc(F)c5nc(C)n(C(C)C)c5c4)n3)nc2)CC1 with Adenosine receptor A2a (Homo sapiens, UniProt P29274)?
Result: > 30 µM
